# Tested on: Glutathione S-transferase P (GSTP1_HUMAN)
# measurement-description: LC–MS proteome analysis, GSTP1
# Assay type: cell-based, Homo sapiens
# test-context: PC3, 24 h, IC50 concentration, % of control
Overview of reported Protein Intensity, % (GSTP1) across a group of compounds:
readout-label: Protein Intensity, % (GSTP1) (%)

>>> numeric_value("O=[N+]([O-])c1cc([N+]2=C(Nc3ccc(Br)cc3)[S][Cu-2]23[S]C(Nc2ccc(Br)cc2)=[N+]3c2ccc(Cl)c([N+](=O)[O-])c2)ccc1Cl")
51.1
>>> numeric_value("O=[N+]([O-])c1cc([N+]2=C(Nc3ccccc3F)[S][Cu-2]23[S]C(Nc2ccccc2F)=[N+]3c2ccc(Cl)c([N+](=O)[O-])c2)ccc1Cl")
35.8
>>> numeric_value("O=[N+]([O-])c1cc([N+]2=C(Nc3ccccc3Br)[S][Cu-2]23[S]C(Nc2ccccc2Br)=[N+]3c2ccc(Cl)c([N+](=O)[O-])c2)ccc1Cl")
95.0
